experiment: recombinant UMI read abundance after kanamycin selection (control-corrected) (log10(CPM+1)); higher = more efficient recombination; extreme values may be limits of the assay; sequences stand for … in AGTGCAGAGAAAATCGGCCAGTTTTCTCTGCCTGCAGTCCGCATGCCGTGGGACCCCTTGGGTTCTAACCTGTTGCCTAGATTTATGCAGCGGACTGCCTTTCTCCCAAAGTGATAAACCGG…AGGTTGGTTTCACT; site = the 11-nt donor
parameter.measured: recombinant UMI read abundance (log10)
Form rule: numeric answer, no unit written next to it.

                             chain_sequence                      parameter_measured  numeric_readout
0  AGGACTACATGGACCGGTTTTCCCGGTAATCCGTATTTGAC (site AGGAATACTGT)  recombinant UMI read abundance (log10)             1.29
1  AGCCACCCATGGACCGGTTTTCCCGGTAATCCGTATTTGTT (site CGCCACCCTAA)  recombinant UMI read abundance (log10)            0.026
2  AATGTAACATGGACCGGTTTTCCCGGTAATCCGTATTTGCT (site AATGCAACTAG)  recombinant UMI read abundance (log10)            0.239
3  AAAAAGGCATGGACCGGTTTTCCCGGTAATCCGTATTTGCT (site ATAAAGGCTAG)  recombinant UMI read abundance (log10)             1.59
4  CAATGCTCATGGACCGGTTTTCCCGGTAATCCGTATTTGGA (site CAATGCTCTTT)  recombinant UMI read abundance (log10)             2.45

Query: Quick one: recombinant UMI read abundance (log10) of CGGCACCCATGGACCGGTTTTCCCGGTAATCCGTATTTGTT (site CGGAATCCTAA) ?
Response: 0.00519

Query: Queued: TCCACCCCATGGACCGGTTTTCCCGGTAATCCGTATTTGCG (site TCCACCACTCG)
Response: 0.00655

Query: Queued: CGGGAGTCATGGACCGGTTTTCCCGGTAATCCGTATTTGGT (site CGGGAGTCTAC)
Response: 2.11

Query: Queued: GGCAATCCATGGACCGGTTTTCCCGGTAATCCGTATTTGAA (site GGGAATCCTTT)
Response: 0.0169

* * *

test: recombinant UMI read abundance after kanamycin selection (control-corrected) (log10(CPM+1)); higher = more efficient recombination; extreme values may be limits of the assay; sequences stand for … in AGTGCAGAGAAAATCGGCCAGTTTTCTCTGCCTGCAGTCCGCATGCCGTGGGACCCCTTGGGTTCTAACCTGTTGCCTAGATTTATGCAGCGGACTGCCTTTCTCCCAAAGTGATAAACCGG…AGGTTGGTTTCACT; site = the 11-nt donor
parameter.measured: recombinant UMI read abundance (log10)

Query: Quick one: recombinant UMI read abundance (log10) of AGAGTGTCATGGACCGGTTTTCCCGGTAATCCGTATTTGCA (site AGAGTGTCTTG) ?
Response: 3.45

Query: Queued: AAATATGCATGGACCGGTTTTCCCGGTAATCCGTATTTGGA (site AATTATGCTTC)
Response: 0.905

Query: Queued: CGATAGACATGGACCGGTTTTCCCGGTAATCCGTATTTGAG (site CGTTAGACTCT)
Response: 0.979

Query: Queued: CAAAGCTCATGGACCGGTTTTCCCGGTAATCCGTATTTGAA (site CAACGCTCTTT)
Response: 0.0122

Query: Queued: GGCAACCCATGGACCGGTTTTCCCGGTAATCCGTATTTGTT (site GGCTACCCTAA)
Response: 0.0252

* * *

assay: recombinant barcode read abundance after kanamycin selection (control-corrected) (log10(CPM+1)); higher = more efficient recombination; sequences stand for … in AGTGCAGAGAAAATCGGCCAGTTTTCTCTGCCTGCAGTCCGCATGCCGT…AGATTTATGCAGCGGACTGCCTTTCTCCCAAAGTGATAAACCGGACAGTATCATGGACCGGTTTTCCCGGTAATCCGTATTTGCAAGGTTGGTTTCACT; site = the 11-nt target
In this section we review reported recombinant barcode read abundance (log10) values for a set of sequences.
Form rule: numeric answer, no unit written next to it.

As a guide, the following entries are already answered.
>>> df
                             chain_sequence  numeric_readout
0  GGCGTGTCTTGGGTTCTAACCTGTTGCGG (site GGCGTGTCTCC)             2.07
1  CGCGAGTCTTGGGTTCTAACCTGTTGCTG (site CGCGAGTCTCA)            0.254
2  AGCAGGTCTTGGGTTCTAACCTGTTGCCT (site AGCAGGTCTAG)             1.09
3  CAGGGGACTTGGGTTCTAACCTGTTGCAC (site CAGGGGACTGT)             2.38
4  GATGCTACTTGGGTTCTAACCTGTTGCAG (site GATGCTACTCT)             1.04

Query: Quick one: recombinant barcode read abundance (log10) of CTTAACACTTGGGTTCTAACCTGTTGCCG (site CTTAACACTCG) ?
Response: 0.683

Query: Queued: TAACGGCCTTGGGTTCTAACCTGTTGCCT (site TACCGGCCTAG)
Response: 0.504

Query: Queued: GACGATCCTTGGGTTCTAACCTGTTGCCT (site GACGATCCTAG)
Response: 0.66

Query: Queued: AACGGAGCTTGGGTTCTAACCTGTTGCGG (site AACGGAGCTCC)
Response: 1.78

Query: Queued: GGGCACACTTGGGTTCTAACCTGTTGCCA (site GGGCACACTTG)
Response: 0.698

* * *

In this section we review reported recombinant barcode read abundance (log10) values for a set of sequences.
experiment: recombinant barcode read abundance after kanamycin selection (control-corrected) (log10(CPM+1)); higher = more efficient recombination; sequences stand for … in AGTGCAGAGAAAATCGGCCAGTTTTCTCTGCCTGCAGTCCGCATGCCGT…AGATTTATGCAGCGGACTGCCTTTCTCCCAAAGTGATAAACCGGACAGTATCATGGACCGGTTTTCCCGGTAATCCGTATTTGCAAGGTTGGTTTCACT; site = the 11-nt target
Form rule: numeric answer, no unit written next to it.

As a guide, the following entries are already answered.
>>> print(df.to_string())
                             chain_sequence  numeric_readout
0  TCCAACCCTTGGGTTCTAACCTGTTGCAG (site TCCAAGCCTCT)           0.0523
1  CTGGGAACTTGGGTTCTAACCTGTTGCAG (site CTGGGAACTCT)            0.836
2  ATGCAATCTTGGGTTCTAACCTGTTGCCT (site ATGCAATCTAG)             1.09
3  GGTGACCCTTGGGTTCTAACCTGTTGCGG (site GGTTACCCTCC)             0.33

Query sequence follows.
Query: Quick one: recombinant barcode read abundance (log10) of ATGGGGTCTTGGGTTCTAACCTGTTGCTT (site ATGGGGTCTAA) ?
Response: 1.73

* * *

assay: recombinant UMI read abundance after kanamycin selection (control-corrected) (log10(CPM+1)); higher = more efficient recombination; extreme values may be limits of the assay; sequences stand for … in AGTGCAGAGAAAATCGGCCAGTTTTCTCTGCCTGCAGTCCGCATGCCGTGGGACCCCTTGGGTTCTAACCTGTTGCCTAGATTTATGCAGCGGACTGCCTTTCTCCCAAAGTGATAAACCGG…AGGTTGGTTTCACT; site = the 11-nt donor
In this section we review reported recombinant UMI read abundance (log10) values for a set of sequences.
Form rule: numeric answer, no unit written next to it.

As a guide, the following entries are already answered.
                             chain_sequence                      parameter_measured  numeric_readout
0  CGCACGACATGGACCGGTTTTCCCGGTAATCCGTATTTGCC (site CGCACGACTGG)  recombinant UMI read abundance (log10)             1.95
1  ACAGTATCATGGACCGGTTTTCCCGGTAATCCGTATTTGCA (site TCACTATCTTG)  recombinant UMI read abundance (log10)            0.822
2  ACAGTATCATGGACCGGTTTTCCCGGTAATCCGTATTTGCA (site ACTGTATCTGG)  recombinant UMI read abundance (log10)          0.00893
3  GCTGGCCCATGGACCGGTTTTCCCGGTAATCCGTATTTGAT (site GCTAGCCCTAT)  recombinant UMI read abundance (log10)           0.0226
4  AAGAAGACATGGACCGGTTTTCCCGGTAATCCGTATTTGCA (site ATGAAGACTTG)  recombinant UMI read abundance (log10)             1.95
5  GTGTTTACATGGACCGGTTTTCCCGGTAATCCGTATTTGCG (site GTGTTTACTCG)  recombinant UMI read abundance (log10)             1.66
6  TAAGGTCCATGGACCGGTTTTCCCGGTAATCCGTATTTGTA (site TAATGTCCTTA)  recombinant UMI read abundance (log10)          0.00238
7  AAGCACGCATGGACCGGTTTTCCCGGTAATCCGTATTTGTG (site AAGCACGCTCT)  recombinant UMI read abundance (log10)            0.906
8  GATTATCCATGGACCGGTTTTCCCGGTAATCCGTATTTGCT (site GATTATCCTAC)  recombinant UMI read abundance (log10)           0.0217
9  TTCTCGACATGGACCGGTTTTCCCGGTAATCCGTATTTGTC (site TTCTCGACTGA)  recombinant UMI read abundance (log10)                0

Query: Quick one: recombinant UMI read abundance (log10) of ACGTCGACATGGACCGGTTTTCCCGGTAATCCGTATTTGTT (site ACGTCGACTAA) ?
Response: 0.654

Query: Queued: GCGAAGTCATGGACCGGTTTTCCCGGTAATCCGTATTTGGG (site GCGAAGCCTCC)
Response: 0.0096

Query: Queued: AGCCGTACATGGACCGGTTTTCCCGGTAATCCGTATTTGCT (site AGCCGTACTAG)
Response: 1.74

Query: Queued: GCCGGGCCATGGACCGGTTTTCCCGGTAATCCGTATTTGCA (site GCCGGGCCTTG)
Response: 0

Query: Queued: AGGAATCCATGGACCGGTTTTCCCGGTAATCCGTATTTGTA (site AGGAATCCTTA)
Response: 0.615

Query: Queued: TGTTCCCCATGGACCGGTTTTCCCGGTAATCCGTATTTGTT (site TGTTCCCCTGA)
Response: 0

Query: Queued: TCTATAACATGGACCGGTTTTCCCGGTAATCCGTATTTGGG (site TCTATAACTCC)
Response: 0.0262

Query: Queued: TAGTTAGCATGGACCGGTTTTCCCGGTAATCCGTATTTGAA (site TAGCTAGCTTT)
Response: 0.407
